- measuredOn: Norepinephrine Transporter (NET) Sites in Mouse Brain (Mus musculus)
- Sequence (O55192 whole entry): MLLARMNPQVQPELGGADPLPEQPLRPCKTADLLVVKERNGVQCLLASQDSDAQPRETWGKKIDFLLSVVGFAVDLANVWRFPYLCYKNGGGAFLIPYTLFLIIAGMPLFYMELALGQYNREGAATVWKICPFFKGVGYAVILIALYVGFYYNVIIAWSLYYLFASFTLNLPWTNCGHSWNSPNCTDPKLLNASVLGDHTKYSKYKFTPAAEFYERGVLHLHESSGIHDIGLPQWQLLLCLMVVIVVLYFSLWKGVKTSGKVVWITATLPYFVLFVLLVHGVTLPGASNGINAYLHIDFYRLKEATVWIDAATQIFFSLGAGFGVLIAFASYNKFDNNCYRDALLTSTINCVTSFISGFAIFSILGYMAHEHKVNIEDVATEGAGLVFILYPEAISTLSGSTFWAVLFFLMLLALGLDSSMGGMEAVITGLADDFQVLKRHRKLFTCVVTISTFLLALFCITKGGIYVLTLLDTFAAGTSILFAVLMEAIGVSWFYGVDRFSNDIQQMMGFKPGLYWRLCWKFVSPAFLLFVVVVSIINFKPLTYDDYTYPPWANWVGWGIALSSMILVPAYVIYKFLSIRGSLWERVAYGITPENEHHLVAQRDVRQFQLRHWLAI
- measurementParameters: 3 mg/kg, PO; mice sacrificed 60 minutes after treatment; cortex
assayEndpoint: Mean Specific Binding (dpm) ± S.E.M., NET

• CC(N(C)C)C1(c2ccc3ccccc3c2)CCCCC1 (single isomer, unassigned) [56 E1] = 368
• CNC(C)C1(c2ccc(Cl)c(Cl)c2)CCCCC1.Cl (single isomer, unassigned) [48 E1, hydrochloride] = 1911
• CN(C)CC1(c2ccc(Cl)c(Cl)c2)CCC(C)(O)CC1 (centres unmarked) [Compound 277] = 824
• CNCC1(c2ccc(Cl)c(Cl)c2)CCC(C)(O)CC1 (centres unmarked) [Compound 276] = 1631
• CN(C)C[C@]1(c2ccc3ccccc3c2)CC[C@](C)(O)CC1 [Compound 225] = 813
